Biological target: Nuclear receptor coactivator 1 (Homo sapiens)
Assay: SRC1 coactivator transcriptional activity inhibitors, confirmation, cell-based, luminescence, quadruplicate (AID 588820);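 further: 0% = DMSO wells and 100% = gossypol 36 µM treated wells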
Details: HEK293 GAL4-SRC1 luciferase reporter, at 3.6 µM, active compounds read high

>  <compound>
Nc1nc(F)nc2c1ncn2[C@@H]1O[C@H](CO)[C@@H](O)[C@H]1O

>  <inhibition [%]>
82.7

$$$$
>  <compound>
O=S(=O)(c1ccc(NC(=S)NCc2cccnc2)cc1)N1CCCCC1

>  <inhibition [%]>
77.6

$$$$
>  <compound>
O=C(N/N=C/c1ccccc1O)c1cccc(C(F)(F)F)c1

>  <inhibition [%]>
65.9

$$$$
>  <compound>
COc1ccccc1-c1nnc(Sc2nc([N+](=O)[O-])nn2C)o1

>  <inhibition [%]>
18.7

$$$$
>  <compound>
CCc1c(C)nc2ccc(Br)cc2c1SCCC#N

>  <inhibition [%]>
66.9

$$$$
>  <compound>
O=[N+]([O-])c1ccc(Oc2ccc(F)cc2)c2ccncc12

>  <inhibition [%]>
47.6

$$$$
>  <compound>
Cc1ccc(S(=O)(=O)NCCC2=CCCCC2)cc1

>  <inhibition [%]>
-5.59

$$$$
>  <compound>
O=C(CNC(=O)Cc1ccccc1)N=Nc1c(O)n(Cc2ccc3c(c2)OCO3)c2ccccc12

>  <inhibition [%]>
3.52

$$$$
>  <compound>
CC1(Cc2ccc(F)cc2)C(=O)Nc2ccc(-c3cccnc3)cc21 (configuration not stated)

>  <inhibition [%]>
48.7

$$$$
>  <compound>
COc1cccc(-c2ccc3ncnc(NCc4ccc5c(c4)OCO5)c3c2)c1

>  <inhibition [%]>
45.2

$$$$
>  <compound>
Cc1cccc(NC(=O)CSc2nnc(NC(=O)C3CC3)s2)c1C

>  <inhibition [%]>
-3.25

$$$$
>  <compound>
CCCCCCCCCn1c2c(c(=N)c3c1CCC3)CCC2

>  <inhibition [%]>
71.4

$$$$
>  <compound>
O=C(N/N=C/c1ccc(O)cc1O)/C(=C/c1ccccc1)CCO

>  <inhibition [%]>
31.7

$$$$
>  <compound>
Cc1ccccc1C(OCC(O)CN1CCN(CCO)CC1)c1ccccc1 (configuration not stated)

>  <inhibition [%]>
-13.1

$$$$
>  <compound>
Cc1nc(N=C(N)N)nc2ccccc12

>  <inhibition [%]>
2.65

$$$$
>  <compound>
O=C(Nc1nc(-c2ccccc2)cs1)c1ccc(N2CCOCC2)c([N+](=O)[O-])c1

>  <inhibition [%]>
15.3

$$$$
>  <compound>
COc1ccc(NC(=O)c2sc(=O)n(Cc3ccc(F)c(Cl)c3)c2C)cc1OC

>  <inhibition [%]>
18.5

$$$$
>  <compound>
Cc1ccc(OCC(=O)c2cc(C)n(-c3ccccc3)c2C)c([N+](=O)[O-])n1

>  <inhibition [%]>
29.1

$$$$
>  <compound>
Cc1ccc(C(=O)N/N=C/c2c(O)ccc3ccccc23)cn1

>  <inhibition [%]>
58.7

$$$$
>  <compound>
COc1ccc(CCN2C(=O)C3C4C=CC(C3C2=O)C2C(=O)N(CCc3ccc(OC)c(OC)c3)C(=O)C42)cc1OC (configuration not stated)

>  <inhibition [%]>
-5.96

$$$$
>  <compound>
OC1c2cc(Br)ccc2N=C2CCCN21 (configuration not stated)

>  <inhibition [%]>
37

$$$$
>  <compound>
COc1ccc(-c2ocnc2C(=O)NCc2nn(-c3ccccc3)nc2C)cc1

>  <inhibition [%]>
-0.81

$$$$
>  <compound>
O=C(O)C1CC=CCC1C(=O)Nc1ccc2c(c1)OCCO2 (configuration not stated)

>  <inhibition [%]>
-47.1

$$$$
>  <compound>
CCCCC(=O)NC(c1ccc(Cl)cc1)c1ccc2cccnc2c1O (configuration not stated)

>  <inhibition [%]>
51.3

$$$$
>  <compound>
NS(=O)(=O)c1ccc(N=Nc2c(O)ccc3ccccc23)cc1

>  <inhibition [%]>
7.96

$$$$
>  <compound>
CCC[N+]1(CC#CCC(c2ccccc2)c2ccccc2)CCCCC1

>  <inhibition [%]>
21.4

$$$$
>  <compound>
c1ccc2c(c1)CCN(c1nc3cc4c(cc3s1)OCCO4)C2

>  <inhibition [%]>
-22.2

$$$$
>  <compound>
COc1ccc(CC(=O)Nc2cccc(-c3nnc(-c4ccccc4)o3)c2)cc1OC

>  <inhibition [%]>
-12.5

$$$$
>  <compound>
O=c1ccc2ccccc2c2ccccc12

>  <inhibition [%]>
58.7

$$$$
>  <compound>
O=c1ccc2c(ccc3ncccc32)o1

>  <inhibition [%]>
18.8

$$$$
>  <compound>
O=C(Nc1cccc(C(F)(F)F)c1)Nc1nnc([C@@H]2C[C@H](O)[C@@H](CO)O2)s1

>  <inhibition [%]>
29.3

$$$$
>  <compound>
OCCNc1c2ccccc2nc2ccccc12

>  <inhibition [%]>
5.64

$$$$
>  <compound>
CC(C)(C)c1ccc(C(=O)NC(=S)Nc2nc3c(s2)CCCC3)cc1

>  <inhibition [%]>
-33.4

$$$$
>  <compound>
Clc1ccccc1C1=Nn2c(nnc2-c2ccncc2)SC1

>  <inhibition [%]>
73.9

$$$$
>  <compound>
Cc1cc(C(=O)COC(=O)c2ccccc2O)c(C)n1Cc1cccs1

>  <inhibition [%]>
71.1

$$$$
>  <compound>
Oc1ccc(CCNc2ncnc3ccc(Cl)cc23)cc1

>  <inhibition [%]>
60.8

$$$$
>  <compound>
O=C(N/N=C/c1cc(Br)ccc1O)c1ccncc1

>  <inhibition [%]>
26.4

$$$$
